Origin of the recorded values: patent US20220064214A1

- procedure-details: Metabolic stability of peptides in fresh human plasma (LC/MS/MS)
- Assay type: in vitro ADME
- reported-conditions: fresh human plasma, 8 h incubation
Ends that are not written are not given here.
quantity: remaining at 8 h, 1 µM (%)

A. DEEEDEEL-OH [P8, DEEEDEEL, reference compound]
B. H-DEEEDEEL-NH2 [8M1, DEEEDEEL-NH2]
In: Looking only at measured remaining at 8 h, 1 µM, which entry is lower, A or B ? Reply with the label of the item you choose.
Out: B
(B: 65.1%, A: 99.7%)

###

- procedure-details: PK analysis of 8M2D in transgenic mice (APPSWE), plasma
- reported-conditions: mouse, in vivo, sc, 10 mg/kg, Day 13, 10 mg/kg, read-out: AUClast
Square brackets hold non-standard residues; d marks the D form. Peptide text beside a SMILES is read from it.
quantity: AUC(0-t) (ng·h/mL)
Numeric only. Scale: ng·h/mL

In: Name the recorded AUC(0-t) for CC(=O)N[C@H](CC(=O)O)C(=O)N[C@@H](CCC(=O)O)C(=O)N[C@@H](CCC(=O)O)C(=O)N[C@@H](CCC(=O)O)C(=O)N[C@@H](CC(=O)O)C(=O)N[C@@H](CCC(=O)O)C(=O)N[C@@H](CCC(=O)O)C(=O)N[C@@H](CC(C)C)C(N)=O [8M2D, Ac-dEEEDEEL-NH2] (Ac-[dD]EEEDEEL-NH2) .
Out: 11600

###

- procedure-details: Metabolic stability of peptides in fresh human plasma (LC/MS/MS)
- Format: in vitro ADME
- reported-conditions: fresh human plasma, 3 h incubation
Ends that are not written are not given here.
quantity: remaining at 3 h, 1 µM (%)

H-DEEEDEEL-NH2 [8M1, DEEEDEEL-NH2]	87.1
DEEEDEEL-OH [P8, DEEEDEEL, reference compound]	115

###

- procedure-details: PK analysis of 8M2D in transgenic mice (APPSWE), plasma
- reported-conditions: mouse, in vivo, sc, 50 mg/kg, Day 13, 50 mg/kg, read-out: Cmax
Square brackets hold non-standard residues; d marks the D form. Peptide text beside a SMILES is read from it.
quantity: Cmax (µg/mL)
Numeric only. Scale: µg/mL

In: Name the recorded Cmax for CC(=O)N[C@H](CC(=O)O)C(=O)N[C@@H](CCC(=O)O)C(=O)N[C@@H](CCC(=O)O)C(=O)N[C@@H](CCC(=O)O)C(=O)N[C@@H](CC(=O)O)C(=O)N[C@@H](CCC(=O)O)C(=O)N[C@@H](CCC(=O)O)C(=O)N[C@@H](CC(C)C)C(N)=O [8M2D, Ac-dEEEDEEL-NH2] (Ac-[dD]EEEDEEL-NH2) .
Out: 73

###

- procedure-details: PK analysis of 8M2D in transgenic mice (APPSWE), plasma
- reported-conditions: mouse, in vivo, sc, 250 mg/kg, Day 1, 250 mg/kg, read-out: Cmax
Square brackets hold non-standard residues; d marks the D form. Peptide text beside a SMILES is read from it.
quantity: Cmax (µg/mL)
Numeric only. Scale: µg/mL

In: Name the recorded Cmax for CC(=O)N[C@H](CC(=O)O)C(=O)N[C@@H](CCC(=O)O)C(=O)N[C@@H](CCC(=O)O)C(=O)N[C@@H](CCC(=O)O)C(=O)N[C@@H](CC(=O)O)C(=O)N[C@@H](CCC(=O)O)C(=O)N[C@@H](CCC(=O)O)C(=O)N[C@@H](CC(C)C)C(N)=O [8M2D, Ac-dEEEDEEL-NH2] (Ac-[dD]EEEDEEL-NH2) .
Out: 207
